Provenance of the data: ChEMBL document CHEMBL3870341

Target: UniProtKB Q07343
Assay: Inhibition of human recombinant PDE4B2 using cAMP as substrate after 2 hrs by TR-FRET assay
metricName: IC50 (nM)

Task: Consider the molecule COc1ccc(C2=NN(CCCO)C(=O)CCC2)cc1OC and give its measured IC50.
Result: 1220

Task: Consider the molecule COc1ccc(C2=NN(CC(=O)O)C(=O)CC(C)(C)C2)cc1OC and give its measured IC50.
Result: 13100

Task: Consider the molecule CCOCCN1N=C(c2ccc(OC)c(OC)c2)CCCC1=O and give its measured IC50.
Result: 2270

1. COc1ccc(C2=NN(Cc3cccnc3)C(=O)CCC2)cc1OC
2. COc1ccc(C2=NN(Cc3ccc(F)cc3)C(=O)CCC2)cc1OC
3. COc1ccc(C2=NN(Cc3ccc(S(C)(=O)=O)cc3)C(=O)CCC2)cc1OC
4. COc1ccc(C2=NNC(=O)CCC2)cc1OC
Task: // ascending sort on recorded IC50 Please express your ranking as an ordered list of the labels.
Result: 2, 1, 3, 4
(2: 170 nM, 1: 290 nM, 3: 1290 nM, 4: 4170 nM)

1. C=CCN1N=C(c2ccc(OC)c(OC)c2)CCCC1=O
2. COc1ccc(C2=NN(CC(N)=O)C(=O)CCC2)cc1OC
Task: Hey, between 1 and 2 which has a smaller measured IC50? Write down the label of the entry you select.
Result: 1
(1: 1130 nM, 2: 7550 nM)

###

Target: 3',5'-cyclic-AMP phosphodiesterase 4B (Homo sapiens)
Sequence (Q07343 whole entry): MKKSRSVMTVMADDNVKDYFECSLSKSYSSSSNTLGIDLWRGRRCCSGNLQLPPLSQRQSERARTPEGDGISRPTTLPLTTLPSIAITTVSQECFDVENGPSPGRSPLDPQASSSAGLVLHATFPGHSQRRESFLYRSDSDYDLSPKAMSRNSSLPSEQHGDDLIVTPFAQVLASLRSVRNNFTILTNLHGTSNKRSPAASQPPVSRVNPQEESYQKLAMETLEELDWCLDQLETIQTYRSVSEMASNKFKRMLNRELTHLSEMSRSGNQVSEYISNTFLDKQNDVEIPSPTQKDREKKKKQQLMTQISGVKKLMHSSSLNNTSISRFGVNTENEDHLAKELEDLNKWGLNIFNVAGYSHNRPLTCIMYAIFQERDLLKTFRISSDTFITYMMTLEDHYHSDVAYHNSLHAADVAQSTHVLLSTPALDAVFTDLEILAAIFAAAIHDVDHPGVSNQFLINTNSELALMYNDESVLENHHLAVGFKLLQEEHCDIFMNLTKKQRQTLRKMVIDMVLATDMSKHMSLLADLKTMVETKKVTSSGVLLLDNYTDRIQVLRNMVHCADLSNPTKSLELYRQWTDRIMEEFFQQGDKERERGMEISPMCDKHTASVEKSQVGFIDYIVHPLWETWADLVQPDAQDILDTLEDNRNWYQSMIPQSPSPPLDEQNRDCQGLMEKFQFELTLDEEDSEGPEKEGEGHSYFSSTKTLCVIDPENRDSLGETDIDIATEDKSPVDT
Test: Inhibition of human recombinant PDE4B2 using cAMP as substrate after 2 hrs by TR-FRET assay
pIC50: −log10 of the molar value.
metricName: pIC50

Task: Consider the compound COc1ccc(C2=NNC(=O)CC(C)(C)C2)cc1OC and give its measured pIC50.
Result: 5.45

Task: Consider the compound COc1ccc(C2=NN(CC3CCC3)C(=O)CCC2)cc1OC and give its measured pIC50.
Result: 6.49

Task: Consider the compound COc1ccc(C2=NN(CCCO)C(=O)CC(C)(C)C2)cc1OC and give its measured pIC50.
Result: 5.57

Task: Consider the compound COc1ccc(C(=O)CCCC(=O)O)cc1 and give its measured pIC50.
Result: 5.45

Task: Consider the compound COc1ccc(C2=NN(Cc3ccc(F)cc3)C(=O)CC(C)(C)C2)cc1OC and give its measured pIC50.
Result: 5.91

Task: Consider the compound CCCN1N=C(c2ccc(OC)c(OC)c2)CCCC1=O and give its measured pIC50.
Result: 6.59

a. COc1ccc(C2=NN(CC(C)C)C(=O)CCC2)cc1OC
b. COc1ccc(C2=NN(Cc3ccncc3)C(=O)CCC2)cc1OC
Task: Of a and b , whose reported pIC50 is the larger number? Write down the label of the entry you select.
Result: a
